system: CCRIS mutagenicity, Ames/micronucleus/aberration tests; experiment: CCRIS mutagenicity studies; conditions: Test System: AMES SALMONELLA TYPHIMURIUM; Strain/Indicator: TA100; Metabolic Activation: NONE; Method: STANDARD PLATE
The source made the active and inactive calls. The rule behind the calls is not given here.
Choose one outcome from this list and give only that: t for active, f for inactive

{"Molecule": "Cc1cc(N(CCO)CCO)ccc1N=Nc1ccc(N)cc1", "Qualitative Label": "f"}
{"Molecule": "Nc1ccc(O)c([N+](=O)[O-])c1", "Qualitative Label": "f"}
{"Molecule": "Nc1c(S(=O)(=O)O)cc(NC2CCCCC2)c2c1C(=O)c1ccccc1C2=O", "Qualitative Label": "f"}
{"Molecule": "COc1cc([N+](=O)[O-])ccc1N=NC(C(C)=O)C(=O)Nc1ccccc1OC (stereo not given)", "Qualitative Label": "f"}
{"Molecule": "CN(CCO)C(=O)Nc1ccccc1", "Qualitative Label": "f"}

What call does the record list for "CC(C)NNC(=O)c1ccncc1" ?
f

What call does the record list for "CC1(C)CC[C@]2(C(=O)O)CC[C@]3(C)C(=CC[C@@H]4[C@@]5(C)C[C@H](O)[C@H](O)[C@@](C)(C(=O)O)[C@@H]5CC[C@]43C)[C@@H]2C1" ?
f

What call does the record list for "O=C([O-])[C@H](O)[C@@H](O)[C@H](O)[C@H](O)CO.O=C([O-])[C@H](O)[C@@H](O)[C@H](O)[C@H](O)CO.[Mn+2]" ?
f

What call does the record list for "COC(=O)Nc1nc2ccc(OS(=O)(=O)c3ccc(F)cc3)cc2[nH]1" ?
f

What call does the record list for c1ccc(-c2ccccc2OCC2CO2)cc1 (stereo not given) ?
t

What call does the record list for "O=C(ON(OCc1ccccc1)C(=O)c1ccccc1)c1ccccc1" ?
t
